Reference source for all entries: ChEMBL document CHEMBL1201862

# Tested on: UACC-62
# protocol.text: NCI tumour cell line growth inhibition, 48 h
Activity calls are given as the source filed them. No stated cut-off is given here; in the data, active = GI50 up to about 1.1 µM and inactive = higher.
property.label: GI50

compound	property.label	reported.value
C=CC1(C)CC(=O)C2(O)C(C)(O1)C(OC(C)=O)C(O)C1C(C)(C)CCC(O)C12C (stereo not drawn)	GI50	69.7 µM (inactive)
COc1cc2c(cc1OC)C(C(c1ccccc1)c1ccccc1)N(C)CC2 (stereo not drawn)	GI50	> 86.7 µM (inactive)
C=CCSC1=N/C(=C\c2ccc(C)cc2)C(=O)N1CC=C	GI50	32.3 µM (inactive)
CC(C)(Oc1ccc(/C=C/C(=O)c2ccccc2)cc1)C(=O)Nc1c(Cl)cccc1Cl	GI50	> 10 µM (inactive)
C=CCNC1=C2C[C@@H](C)C[C@@H](OC)[C@H](OC(=O)CCCCN)[C@H](C)/C=C(\C)[C@@H](OC(N)=O)[C@H](OC)/C=C\C=C(/C)C(=O)NC(=CC1=O)C2=O	GI50	14.6 µM (inactive)

GI50 in this record for [O-][Cl+3]([O-])([O-])[O-].[O-][Cl+3]([O-])([O-])[O-].c1ccn2c(N3CCCC3)[n+]3c4ccccc4n4c(N5CCCC5)[n+]5ccccc5c4c3c2c1 : 41.8 µM (inactive)

GI50 in this record for O=C1c2cccc3cccc(c23)C2NCCCN12 (stereo not drawn) : > 100 µM (inactive)

GI50 in this record for Cc1c(C(=O)CC(=O)C(=O)NC2C3CC4CC(C3)CC2C4)[n+]([O-])c2ccccc2[n+]1[O-] (stereo not drawn) : > 100 µM (inactive)

====

# Tested on: K562
# protocol.text: NCI tumour cell line growth inhibition, 48 h
Active and inactive are the calls of the source. Cut-off read from the data, not from the text of the source: active = GI50 up to about 1.1 µM and inactive = higher.
Answer with one of the outcomes given here: True (active), False (inactive)

Examples from the recorded data:
compound	label.class
Cc1cc(OCc2nnc3n2N=C(c2cc(F)c(Cl)cc2Cl)/C(=C/c2ccc(Cl)cc2)S3)ccc1Cl	False
Cc1c(N2C(=O)/C(=C/C=C/c3ccccc3)N=C2c2ccccc2)c(=O)n(-c2ccccc2)n1C	False

Task: # outcome recorded in this test, key = Nc1cccc(/C=C/CN2CCN(CCOC(c3ccccc3)c3ccccc3)CC2)c1
Result: False

Task: # outcome recorded in this test, key = COC(=O)/C=C\C(C#N)(C#N)/N=C/c1ccc(C)s1
Result: True

Task: # outcome recorded in this test, key = Cc1c(C(=O)CC(=O)C(=O)NC2C3CC4CC(C3)CC2C4)[n+]([O-])c2ccccc2[n+]1[O-] (configuration not stated)
Result: False

Task: # outcome recorded in this test, key = COc1ccc(-c2c(C3=NCCN3)nnn2-c2ccccc2)cc1
Result: False

Task: # outcome recorded in this test, key = Cc1sc(C)c2c1C(=O)CC2N (configuration not stated)
Result: False

Task: # outcome recorded in this test, key = N#Cc1c(N)n(-c2nc3ccccc3s2)c(=O)c2cc([N+](=O)[O-])ccc12
Result: False

Task: # outcome recorded in this test, key = CCN(CC)C(=S)SS(=O)(=O)c1ccc(C)cc1
Result: False

Task: # outcome recorded in this test, key = O=S(=O)(O)c1ccc(/N=N/c2ccc(/N=N/c3c(O)ccc4cc(S(=O)(=O)O)ccc34)cc2)cc1
Result: False

Task: # outcome recorded in this test, key = COc1ccc(C(=O)CC(=O)C(=O)Nc2ccc(C)c(C)c2)cc1
Result: False

Task: # outcome recorded in this test, key = O=c1c(Nc2ccccc2)cn(CCOc2ccccc2)c(=O)n1CCOc1ccccc1
Result: False

Task: # outcome recorded in this test, key = O=[N+]([O-])c1ccc(-n2nnc(C3=NCCN3)c2-c2ccc(Cl)cc2)cc1
Result: False

Task: # outcome recorded in this test, key = COc1ccc(CNc2cnc3cc(N)ccc3n2)cc1
Result: False

Task: # outcome recorded in this test, key = Cc1ncc(CO)c(CN)c1O
Result: False

Task: # outcome recorded in this test, key = Cn1/c(=N\S(=O)(=O)c2ccccc2)[nH]c2ccccc21
Result: False

Task: # outcome recorded in this test, key = CCOC(=O)C(NC(=O)CC)(C(F)(F)F)P(=O)(OCC)OCC (configuration not stated)
Result: False

Task: # outcome recorded in this test, key = NCCCc1nonc1C(=O)O
Result: False

Task: # outcome recorded in this test, key = CC(=O)OC(CC(C)C)P1(=O)N(CC(C)(C)C)[C@@H]2CCCC[C@H]2N1CC(C)(C)C (some centres not stated)
Result: False

Task: # outcome recorded in this test, key = COc1cc(/C=C/C(=O)c2cccc3ccccc23)cc(OC)c1OC
Result: False

Task: # outcome recorded in this test, key = COc1ccc2c(c1)[n+]([O-])c(-c1ccc(C)cc1)c(N)[n+]2[O-]
Result: False

Task: # outcome recorded in this test, key = CC(=O)OCCN1c2ccccc2Sc2cnccc21
Result: False

====

# Tested on: HOP-92
# protocol.text: NCI tumour cell line growth inhibition, 48 h
The source made the active and inactive calls. No stated cut-off is given here; in the data, active = GI50 up to about 1.1 µM and inactive = higher.
property.label: GI50

# example entries with known answers
compound	GI50
C/C(=N/NC(=S)N1CCCCCC1)c1cccc(/C(C)=N\NC(=S)N2CCCCCC2)n1	1.7 µM (inactive)
Cn1cc(C2NC(=O)c3ccccc3N2)c2ccccc21 (stereo not given)	22.3 µM (inactive)
CSC1=C(C(=O)Nc2ccc(C)cc2)C(N)=NC1=O	> 100 µM (inactive)
CSc1nc(SC)c2c(CO)c(Br)n(Cc3ccccc3)c2n1	17.2 µM (inactive)
C=CCNc1nc2c(N)ncnc2s1	> 10 µM (inactive)
C=CCNC1=C2C[C@@H](C)C[C@@H](OC)[C@H](OC(=O)CCCCN)[C@H](C)/C=C(\C)[C@@H](OC(N)=O)[C@H](OC)/C=C\C=C(/C)C(=O)NC(=CC1=O)C2=O	18.8 µM (inactive)
CC1CN1c1c(C(=O)/C=C/c2ccc(F)cc2)c(-c2ccccc2)nn(C)c1=O (stereo not given)	6.58 µM (inactive)
c1nc(OCC2CCCCC2)c2nc[nH]c2n1	66.7 µM (inactive)
COc1ccc2c(c1)-c1nc(=S)n(CCCN(C)C)c3ccc([N+](=O)[O-])c(c13)N2	2.15 µM (inactive)

GI50 in this record for O=CNc1ccc(S(=O)(=O)c2ccc(NC=O)cc2)cc1 : > 100 µM (inactive)

====

# Test system: HL-60
# protocol.text: NCI tumour cell line growth inhibition, 48 h
Calls of active or inactive are those of the source. Rule as the data show it: active = GI50 up to about 1.1 µM and inactive = higher.
Reported GI50 values are given for each entry in this list.

molecule	GI50
Nc1ccc2nc3ccc(=O)cc-3n(-c3ccccc3)c2c1	59 µM (inactive)
O=C(CC(C(=O)c1cccs1)c1ccsc1)c1ccsc1 (stereo not given)	40.1 µM (inactive)
COc1ccc(C=C2C(C)=NN(c3cccc(Cl)c3)C23C(Cl)C(=O)N3c2nc3ccccc3s2)cc1 (stereo not given)	2.05 µM (inactive)

GI50 in this record for COc1cc(/C=C2/C(=O)N/C(=N\C(C)=O)N2C)ccc1OC(C)=O : 53.3 µM (inactive)

GI50 in this record for CC(=O)c1c(SCCN2CCOCC2)n(-c2ccccc2)c(=S)n(-c2ccccc2)c1=O : 28.5 µM (inactive)

====

# Tested on: NCI-H226
# protocol.text: NCI tumour cell line growth inhibition, 48 h
Active and inactive are the calls of the source. No stated cut-off is given here; in the data, active = GI50 up to about 1.1 µM and inactive = higher.
Answer with one of the outcomes given here: active, inactive

compound	measured.target	label.class
OCC1C(/C=C/c2ccoc2)ON2CCCC12 (configuration not stated)	NCI-H226	inactive
Nc1ccccc1CC(O)C(=O)O (configuration not stated)	NCI-H226	inactive
c1ccc(C2=NN3CN(N2)c2ccccc2OCCCOc2ccccc23)cc1	NCI-H226	inactive
C[Si](C)(C)C#C[I+]c1ccccc1	NCI-H226	inactive
O=c1c2ncn(C3CCCCO3)c2n(-c2ccccc2)c(=S)n1-c1ccccc1 (configuration not stated)	NCI-H226	inactive
Nc1ncnc2c(C3OC(CO)C(O)C3O)scc12 (configuration not stated)	NCI-H226	active
COc1ccc(-c2cc(-c3ccccc3)n(C3OCC(OC(C)=O)C(OC(C)=O)C3OC(C)=O)c(=S)c2C#N)cc1 (configuration not stated)	NCI-H226	inactive
Nc1nc(Cl)c(N)c(NCC2(CO)CC(O)C2)n1 (configuration not stated)	NCI-H226	inactive
CNC(=S)NNC(=O)c1c(C)nc2sccn12	NCI-H226	inactive
CCC(=O)OC[n+]1ccc2c(C)c3[nH]c4ccccc4c3c(C)c2c1	NCI-H226	active

Task: # outcome recorded in this test, key = Cc1c2c(n(CC(c3ccccc3)c3ccccc3)c1C)NN=C(C#N)S2(=O)=O
Result: inactive

Task: # outcome recorded in this test, key = C=C(C)C1CC/C(C)=C/CCC2(C)OC2CC/C(CO)=C\C1O (configuration not stated)
Result: inactive

====

# Tested on: CCRF-CEM
# protocol.text: NCI tumour cell line growth inhibition, 48 h
The source made the active and inactive calls. No stated cut-off is given here; in the data, active = GI50 up to about 1.1 µM and inactive = higher.
Answer with one of the outcomes given here: t (active), f (inactive)

Examples from the recorded data:
molecule	measured.target	label.class
Oc1cc(Cl)ncn1	CCRF-CEM	f
C=CCNC1=NC(=O)C(CC(=O)Nc2ccc([N+](=O)[O-])cc2[N+](=O)[O-])S1 (stereo not given)	CCRF-CEM	f
O=C(/C=C/c1ccccc1Cl)c1ccccc1Cl	CCRF-CEM	f
O=C(O)c1ccc(C(O)(c2ccccc2)c2ccccc2)cc1	CCRF-CEM	f
CSC(SC)=C(C(=O)O)P(=O)(O)O	CCRF-CEM	f

Task: # outcome recorded in this test, key = O=C(c1ccccc1)c1nnn(Cc2ccccc2Cn2nnc(C(=O)c3ccccc3)c2C(=O)c2ccccc2)c1C(=O)c1ccccc1
Result: f

Task: # outcome recorded in this test, key = CC1=CC(=O)N2[C@H](OC[C@@H]2C(C)C)O1
Result: f

Task: # outcome recorded in this test, key = O=C(O)c1ccc(C2=Cc3cc(Cl)ccc3OC2)cc1
Result: f

Task: # outcome recorded in this test, key = Cc1nc2ccc(S(=O)(=O)Nc3ccccn3)cc2c(=O)n1NS(=O)(=O)c1ccccn1
Result: f

Task: # outcome recorded in this test, key = CCCCCCCc1c(Cl)nc(Cl)nc1Cl
Result: t
